Origin of measurements: patent US4613695A

Field: minimal effective dose. Provide a value for each of the compounds that follow.
# System: Lymphatic leukemia L1210
# protocol: Lymphatic leukemia L1210 survival test (survival time increase, long term survival, cure potential)
# Assay type: in vivo, Female BDF1 mice
# test conditions: Mus musculus, L1210, po, 1440 h; >20% long term survivors on day 60; p.o. once; read-out: Minimum effective dose (long term survival)
The response must be a number in mg/kg with no trailing unit.

Fill in minimal effective dose for record CCN(CC)S(=O)(=O)CCNC(=O)N(CCCl)N=O 63

Name the recorded minimal effective dose of the compound listed here: O=NN(CCCl)C(=O)NCCS(=O)(=O)N1CCCCC1 31

Look up minimal effective dose of CN(C)S(=O)(=O)CCCNC(=O)N(CCCl)N=O and report it. 31

Read off the recorded minimal effective dose for O=NN(CCCl)C(=O)NCCS(=O)(=O)NCCO 31

Read off the recorded minimal effective dose for O=NN(CCCl)C(=O)NCCS(=O)(=O)NC1CCCCC1 63

State its minimal effective dose for this compound: CN(C)S(=O)(=O)CCNC(=O)N(CCCl)N=O 31
